TESTED SYSTEM: human MGL from HeLa cells (Homo sapiens, UniProt Q99685)
Construct: combining endogenously expressed MGL from HeLa cells with test compounds; endogenous in cells; host or cells: HeLa cells / cell homogenates
Sequence (Q99685 whole entry): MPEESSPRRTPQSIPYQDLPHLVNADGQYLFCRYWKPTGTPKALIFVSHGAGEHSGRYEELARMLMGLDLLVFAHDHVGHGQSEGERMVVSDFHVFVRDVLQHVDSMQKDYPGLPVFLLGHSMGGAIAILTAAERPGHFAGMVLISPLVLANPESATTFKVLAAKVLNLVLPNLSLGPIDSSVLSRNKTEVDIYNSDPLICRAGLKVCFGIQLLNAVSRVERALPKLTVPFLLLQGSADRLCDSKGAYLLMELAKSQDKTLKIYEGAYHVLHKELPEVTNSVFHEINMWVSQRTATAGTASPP
ASSAY TEXT: In vitro MGL activity assay: [glycerol-1,3-3H]-oleyl glycerol cleavage by MGL from HeLa cells
Format: biochemical
CONDITION DETAILS: 300 nM [Glycerol-1,3-3H]-oleyl glycerol, one hour
EXPERIMENTAL ENDPOINT: IC50 (nM)

> print(dat)
                                test.smiles                             tested.system  experimental.endpoint  reading
1  C[C@H]1c2nn(C)c(-c3ccc(F)cc3Cl)c2CCN1C(=O)c1ccc2ncccc2c1  human MGL from HeLa cells (Homo sapiens, UniProt Q99685)                   IC50      347
2  Cc1c(C(=O)N2CCc3c(nn(C)c3-c3cc(F)c(F)c(F)c3)[C@@H]2C)nn2c1COC(C)(C)C2  human MGL from HeLa cells (Homo sapiens, UniProt Q99685)                   IC50     1840
3  C[C@H]1c2nn(C)c(-c3cc(F)c(F)c(F)c3)c2CCN1C(=O)c1ccnc2c1OCCO2  human MGL from HeLa cells (Homo sapiens, UniProt Q99685)                   IC50     28.7
4  Cc1nc2ccc(C3CC3)cn2c1C(=O)N1CCc2c(nn(C)c2-c2cc(F)c(F)c(F)c2)[C@@H]1C  human MGL from HeLa cells (Homo sapiens, UniProt Q99685)                   IC50     18.2

P: COc1ccccc1-c1c2c(nn1C)[C@H](C)N(C(=O)c1ccc3ncccc3c1)CC2
Q: C[C@H]1c2nn(C)c(-c3cc(F)c(F)c(F)c3)c2CCN1C(=O)c1n[nH]c2cccnc12
R: C[C@H]1c2nn(C)c(-c3cc(F)cc(OC(F)F)c3)c2CCN1C(=O)c1ccc2c(c1)OCCC2
Query: Put the molecules in ascending order of IC50. Your reply should list the labels following the order given in the request.
Response: R, P, Q
(R: 28.7 nM, P: 54.4 nM, Q: 175 nM)

* * *

TESTED SYSTEM: human MGL from HeLa cells (Homo sapiens)
Construct: combining endogenously expressed MGL from HeLa cells with test compounds; endogenous in cells; host or cells: HeLa cells / cell homogenates
ASSAY TEXT: In vitro MGL activity assay: [glycerol-1,3-3H]-oleyl glycerol cleavage by MGL from HeLa cells
Format: biochemical
CONDITION DETAILS: 300 nM [Glycerol-1,3-3H]-oleyl glycerol, one hour
EXPERIMENTAL ENDPOINT: IC50 (nM)

These recorded examples may help you get a feel for the data.
> print(dat)
                                test.smiles                             tested.system  experimental.endpoint  reading
1  C[C@H]1c2nn(C)c(-c3cc(F)c(F)c(F)c3)c2CCN1C(=O)c1cnc2[nH]ccc2c1  human MGL from HeLa cells (Homo sapiens)                   IC50     9.36
2  C[C@H]1c2nn(C)c(-c3ccc(C(F)(F)F)cc3)c2CCN1C(=O)c1ccc2ncccc2c1  human MGL from HeLa cells (Homo sapiens)                   IC50     54.9
3  Cc1nc2c(C)cccn2c1C(=O)N1CCc2c(nn(C)c2-c2cc(F)c(F)c(F)c2)[C@@H]1C  human MGL from HeLa cells (Homo sapiens)                   IC50     43.6

I: Cc1nn2ncccc2c1C(=O)N1CCc2c(nn(C)c2-c2cc(F)c(F)c(F)c2)[C@@H]1C
II: C[C@H]1c2nn(C)c(-c3cc(F)c(F)c(F)c3)c2CCN1C(=O)c1ccc2nncn2c1
III: Cc1nn2ccccc2c1C(=O)N1CCc2c(nn(C)c2-c2cc(F)c(F)c(F)c2)[C@@H]1C
IV: C[C@H]1c2nn(C)c(-c3cccc4ccoc34)c2CCN1C(=O)c1ccc2ncccc2c1
V: C[C@H]1c2nn(C)c(-c3cc(F)c(F)c(F)c3)c2CCN1C(=O)c1ncnc2c1ncn2C
Query: Put the compounds in ascending order of IC50. Your reply should list the labels following the order given in the request.
Response: III, IV, I, V, II

Cited source for all entries: patent US11820766B2
